Hey, just so you know, these numbers are from patent US7276337B2.

- STUDY SYSTEM: Ribonuclease A (Bos taurus, UniProt P61823)
- Sequence (P61823 27-150): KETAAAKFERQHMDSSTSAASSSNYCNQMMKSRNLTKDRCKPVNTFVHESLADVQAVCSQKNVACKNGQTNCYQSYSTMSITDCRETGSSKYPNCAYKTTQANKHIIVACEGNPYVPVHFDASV
- PROTOCOL DETAILS: Visual detection ribonuclease assay, cleavage of Substrate ODN by RNase A
- Type: biochemical, mammalian
- Design: key: +++ = maximum intensity; ++ = moderate intensity; + = faint but above background; − = negative (identical to background)
- CONDITION SUMMARY: RNase A 1 ng/ml; visual inspection, UV excitation; Substrate 500 nM; 37° C. 60 minutes
MEASURED ENDPOINT: Sensitivity of Substrate ODN to Ribonuclease A, relative signal intensity

SUBSTANCE	RESULT
5′ Fluorescein-AcggA-Dabcyl 3′ (NACGGAN; 5' fluorescein and 3' Dabcyl labels, nucleotide chemistry not given here) [SEQ ID NO:14]	++
5′ Fluorescein-AcuaA-Dabcyl 3′ (NACUAAN; 5' fluorescein and 3' Dabcyl labels, nucleotide chemistry not given here) [SEQ ID NO:17]	+++
5′ Fluorescein-AgucAA-Dabcyl 3′ (NAGUCAAN; 5' fluorescein and 3' Dabcyl labels, nucleotide chemistry not given here) [SEQ ID NO:10]	++
5′ Fluorescein-AguAA-Dabcyl 3′ (NAGUAAN; 5' fluorescein and 3' Dabcyl labels, nucleotide chemistry not given here) [SEQ ID NO:7]	+
5′ Fluorescein-AacAA-Dabcyl 3′ (NAACAAN; 5' fluorescein and 3' Dabcyl labels, nucleotide chemistry not given here) [SEQ ID NO:8]	+++

[ask] Sensitivity of Substrate ODN to Ribonuclease A, relative signal intensity lookup needed for 5′ Fluorescein-AagucA-Dabcyl 3′ (NAAGUCAN; 5' fluorescein and 3' Dabcyl labels, nucleotide chemistry not given here) [SEQ ID NO:24] , thanks.
[reply] +++

[ask] Sensitivity of Substrate ODN to Ribonuclease A, relative signal intensity lookup needed for 5′ Fluorescein-AauggcA-QSY-7 3′ (NAAUGGCAN; 5' fluorescein and 3' QSY-7 labels, nucleotide chemistry not given here) [SEQ ID NO:30] , thanks.
[reply] +++

[ask] Sensitivity of Substrate ODN to Ribonuclease A, relative signal intensity lookup needed for 5′ Fluorescein-AAgAA-Dabcyl 3′ (NAAGAAN; 5' fluorescein and 3' Dabcyl labels, nucleotide chemistry not given here) [SEQ ID NO:4] , thanks.
[reply] −

[ask] Sensitivity of Substrate ODN to Ribonuclease A, relative signal intensity lookup needed for 5′ Fluorescein-AaugcA-QSY-7 3′ (NAAUGCAN; 5' fluorescein and 3' QSY-7 labels, nucleotide chemistry not given here) [SEQ ID NO:29] , thanks.
[reply] +++

[ask] Sensitivity of Substrate ODN to Ribonuclease A, relative signal intensity lookup needed for 5′ Fluorescein-AaggucA-QSY-7 3′ (NAAGGUCAN; 5' fluorescein and 3' QSY-7 labels, nucleotide chemistry not given here) [SEQ ID NO:28] , thanks.
[reply] +++
